Target: GST-Aq-NF-kB (Amphimedon queenslandica, UniProt A9Y5G7 2-389)
Sequence: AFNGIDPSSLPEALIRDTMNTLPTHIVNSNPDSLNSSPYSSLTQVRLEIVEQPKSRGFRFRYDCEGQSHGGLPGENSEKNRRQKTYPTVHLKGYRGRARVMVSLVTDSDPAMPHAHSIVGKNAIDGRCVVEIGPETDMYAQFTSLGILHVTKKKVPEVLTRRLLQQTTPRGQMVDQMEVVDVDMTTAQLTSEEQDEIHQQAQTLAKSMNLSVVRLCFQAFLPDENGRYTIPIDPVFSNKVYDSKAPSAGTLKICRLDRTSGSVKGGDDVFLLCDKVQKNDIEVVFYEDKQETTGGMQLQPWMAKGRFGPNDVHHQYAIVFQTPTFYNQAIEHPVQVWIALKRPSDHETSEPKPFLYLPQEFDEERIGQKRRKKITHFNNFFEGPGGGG
Experiment: protein-binding microarray (PBM); PBM: ~300 nM protein, 6 mM HEPES pH 7.8, 80 mM KCl, 0.5 mM EDTA, 0.5 mM EGTA, 6% glycerol, 35 ng/ul poly-dIdC, 1% milk, 1 h, room temperature; high values mean tight binding
Settings: dsDNA, one strand shown
measurement.kind: binding signal (z-score)
Give just the numeric value; z-score need not be written.

Example sequences with recorded binding signal:
## Input What measured binding signal goes with CCGATTAACATCAAAAAACCCCGTGATGTTAATCGGGTCTTGATTCGCTTGACGCTGCTG ?
## Output 7.03

## Input Fill blank: measured binding signal of the sequence CCGATTAACATCACTCTTTCCCCTGATGTTAATCGGGTCTTGATTCGCTTGACGCTGCTG is ____.
## Output 4.18

## Input GET /values?readout=binding signal&item= CCGATTAACATCAGAAAGTCCCCTGATGTTAATCGGGTCTTGATTCGCTTGACGCTGCTG
## Output 7.8

## Input I'd like to know its binding signal. The sequence in question is CCGATTAACATCAAATCCCCCCATGATGTTAATCGGGTCTTGATTCGCTTGACGCTGCTG
## Output 6.36

Further cases:
## Input // query binding signal value for entry CCGATTAACATCAGGGGATCACCTGATGTTAATCGGGTCTTGATTCGCTTGACGCTGCTG
## Output 6.68

---

Target: GST-Aq-NF-kB (Amphimedon queenslandica, UniProt A9Y5G7 2-389)
Sequence: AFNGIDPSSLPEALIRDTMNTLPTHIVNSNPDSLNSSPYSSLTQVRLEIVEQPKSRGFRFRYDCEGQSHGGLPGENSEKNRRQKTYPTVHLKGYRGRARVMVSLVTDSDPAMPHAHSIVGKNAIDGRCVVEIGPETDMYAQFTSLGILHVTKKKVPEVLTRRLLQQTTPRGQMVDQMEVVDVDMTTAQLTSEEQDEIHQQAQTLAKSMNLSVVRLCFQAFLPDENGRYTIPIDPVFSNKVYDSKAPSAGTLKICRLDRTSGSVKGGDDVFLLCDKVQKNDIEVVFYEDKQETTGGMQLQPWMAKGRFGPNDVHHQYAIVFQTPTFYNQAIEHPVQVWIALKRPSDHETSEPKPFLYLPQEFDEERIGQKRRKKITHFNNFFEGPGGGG
Assay: protein-binding microarray (PBM); PBM: ~300 nM protein, 6 mM HEPES pH 7.8, 80 mM KCl, 0.5 mM EDTA, 0.5 mM EGTA, 6% glycerol, 35 ng/ul poly-dIdC, 1% milk, 1 h, room temperature; Ap Aiptasia and Nv Nematostella (sea anemones) / Co Capsaspora / Aq Amphimedon (sponge) / Dm Drosophila / Hu human; RHD is the Rel homology domain; high values mean tight binding
Conditions: dsDNA, one strand shown
Threshold 4 z-score. binding signal below it: 1. binding signal at it or above: -1.

Use the examples below as a reference point.
## Input binding signal under 4 z-score? Item: CCGATTAACATCAGGGGAACCACTGATGTTAATCGGGTCTTGATTCGCTTGACGCTGCTG
## Output -1

## Input hey, is binding signal for CCGATTAACATCAGGGGGACTACTGATGTTAATCGGGTCTTGATTCGCTTGACGCTGCTG lower than 4 z-score or not?
## Output -1

Continuing:
## Input Criterion: binding signal strictly below 4 z-score. Is it met by CCGATTAACATCACAGGGAATTCTGATGTTAATCGGGTCTTGATTCGCTTGACGCTGCTG ?
## Output -1

## Input Below 4 z-score on binding signal? Entry CCGATTAACATCAGGGGATGAATTGATGTTAATCGGGTCTTGATTCGCTTGACGCTGCTG
## Output 1

## Input Lab log: compare recorded binding signal with 4 z-score; is it strictly lower for CCGATTAACATCAGGACATCCCATGATGTTAATCGGGTCTTGATTCGCTTGACGCTGCTG ?
## Output 1

## Input Item CCGATTAACATCAGGGGTGGGAATGATGTTAATCGGGTCTTGATTCGCTTGACGCTGCTG : binding signal beneath 4 z-score, strictly?
## Output 1
